biological target: T1, membrane-bound full-length human CD89 on HEK293F cells (human, UniProt P24071 22-287); experiment: FACS HEK293F-huCD89, 10 ug/mL; competitor PE-MIP8a
T1 construct: 2 or transient transfectants; also called membrane human CD89; human FcaRI
Field: % blocking of PE-MIP8a binding. Provide a value for each of the binders that follow.

Sample answers from the record:
CD89/IgA blocking mouse anti-human CD89-specific antibody 8F3 (antibody, V domains shown, also called mouse 8F3) VH: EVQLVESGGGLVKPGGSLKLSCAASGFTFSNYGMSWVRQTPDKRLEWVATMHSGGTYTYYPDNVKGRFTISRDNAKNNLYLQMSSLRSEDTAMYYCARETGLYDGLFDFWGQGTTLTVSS VL: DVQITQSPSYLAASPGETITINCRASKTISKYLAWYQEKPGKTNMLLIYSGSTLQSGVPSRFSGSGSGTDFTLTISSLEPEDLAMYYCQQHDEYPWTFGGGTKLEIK; < 25%
CD89/IgA blocking mouse anti-human CD89-specific antibody 16D6 (antibody, V domains shown, also called 16D16 [sic]) VH: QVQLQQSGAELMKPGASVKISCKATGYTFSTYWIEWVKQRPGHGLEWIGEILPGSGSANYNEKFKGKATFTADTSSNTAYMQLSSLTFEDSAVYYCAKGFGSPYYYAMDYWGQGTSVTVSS VL: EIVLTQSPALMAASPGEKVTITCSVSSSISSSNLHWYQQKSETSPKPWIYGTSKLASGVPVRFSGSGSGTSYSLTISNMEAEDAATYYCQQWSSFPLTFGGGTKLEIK; < 25%
CD89/IgA blocking mouse anti-human CD89-specific antibody 10E7 (antibody, V domains shown, biotinylated in the Octet assay; also called mouse 10E7) VH: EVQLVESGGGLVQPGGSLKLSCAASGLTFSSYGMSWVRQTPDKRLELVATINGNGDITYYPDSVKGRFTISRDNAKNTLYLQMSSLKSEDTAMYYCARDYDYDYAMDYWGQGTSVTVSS VL: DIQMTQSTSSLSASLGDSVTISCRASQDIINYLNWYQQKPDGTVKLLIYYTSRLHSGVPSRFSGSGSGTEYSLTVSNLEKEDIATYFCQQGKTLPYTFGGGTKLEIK; < 25%

// query % blocking of PE-MIP8a binding value for entry CD89/IgA blocking mouse anti-human CD89-specific antibody 30C7 (antibody, V domains shown) VH: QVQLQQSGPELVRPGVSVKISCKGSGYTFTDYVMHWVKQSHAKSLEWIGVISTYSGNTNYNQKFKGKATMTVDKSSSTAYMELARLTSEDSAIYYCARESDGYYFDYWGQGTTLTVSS VL: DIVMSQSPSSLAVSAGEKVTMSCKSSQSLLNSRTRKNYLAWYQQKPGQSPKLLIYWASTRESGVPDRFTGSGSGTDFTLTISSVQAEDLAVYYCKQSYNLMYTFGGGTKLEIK
> 90%
